Below: a set of entries, each annotated with reported z-score of subpopulation abundance.
# System: Saccharomyces cerevisiae BY4741 SeMeCo community
# assay: z-score of subpopulation abundance vs DMSO median, subpopulation auxotrophic for HLM; higher = larger share of this subpopulation than in DMSO controls
# condition-label: 10 µM; 24 h; SM minimal medium; subpopulation (auxotrophy): HLM
Counter-ions that a name gives are not always drawn.
The answer should be a number; do not append a unit.

Worked examples follow.
CC[C@H]1OC(=O)[C@H](C)[C@@H](O[C@H]2C[C@@](C)(OC)[C@@H](O)[C@H](C)O2)[C@H](C)[C@@H](O[C@@H]2O[C@H](C)C[C@H](N(C)C)[C@H]2O)[C@](C)(O)C[C@@H](C)[C@@H]2N[C@@H](COCCOC)O[C@H]([C@H]2C)[C@]1(C)O [Dirithromycin]: -0.77
CCCN[C@H]1CCc2nc(N)sc2C1 [Pramipexole]: 0.06
CCOC(=O)C1=C(C)NC(C)=C(C(=O)OC)C1c1cccc(Cl)c1Cl (stereo not given) [Felodipine]: 8.73
CN1C2CCCC1CC(NC(=O)c1nn(C)c3ccccc13)C2 (stereo not given) [Granisetron HCl]: -0.26
CCC(=O)NS(=O)(=O)c1ccc(-c2c(-c3ccccc3)noc2C)cc1 [Parecoxib]: 0.22

Answer with the recorded z-score of subpopulation abundance for the compound listed here: COc1ccc(NS(=O)(=O)c2ccc(N)cc2)nn1 [Sulfamethoxypyridazine] -1.06

Give the value of z-score of subpopulation abundance reported for the following: CN1C2CCC1CC(OC(=O)C(O)c1ccccc1)C2 (stereo not given) [Homatropine Bromide] -0.76

====

# Tested on: Saccharomyces cerevisiae BY4741 SeMeCo community
# assay: z-score of subpopulation abundance vs DMSO median, subpopulation auxotrophic for LU; higher = larger share of this subpopulation than in DMSO controls
# condition-label: 10 µM; 24 h; SM minimal medium; subpopulation (auxotrophy): LU
Structures can show the parent of a compound that is named as a salt.
measurement-type: z-score of subpopulation abundance
Answer with a bare number; do not write a unit.

Worked cases, answers included:
Nc1ccc(S(=O)(=O)Nc2nccs2)cc1 [Sulfathiazole]: 0.15
CCN(CC)C(=O)[C@@]1(c2ccccc2)C[C@H]1CN [Levomilnacipran Hydrochloride]: -0.02
CS(=O)(=O)Nc1ccc([N+](=O)[O-])cc1Oc1ccccc1 [Nimesulide]: 0.49
CCCN[C@H]1CCc2nc(N)sc2C1 [Pramipexole 2HCl Monohydrate]: -0.67

// Input: CN[C@H]1C(=O)N[C@@H]2Cc3ccc(cc3)Oc3cc4cc(c3O[C@@H]3O[C@H](C(=O)O)[C@@H](O)[C@H](O)[C@H]3NC(=O)CCCCCCCCC(C)C)Oc3ccc(cc3Cl)[C@@H](O)[C@@H]3NC(=O)[C@H](NC(=O)[C@@H]4NC(=O)[C@@H](NC2=O)c2cc(cc(O)c2Cl)Oc2cc1ccc2O)c1ccc(O)c(c1)-c1c(O[C@H]2O[C@H](CO)[C@@H](O)[C@H](O)[C@@H]2O)cc(O)cc1[C@@H](C(=O)NCCCN(C)C)NC3=O [Dalbavancin] . Output its z-score of subpopulation abundance only. -0.56

Please indicate z-score of subpopulation abundance recorded for CC1(C)S[C@@H]2[C@H](NC(=O)[C@H](NC(=O)N3CCNC3=O)c3ccccc3)C(=O)N2[C@H]1C(=O)O [Azlocillin sodium salt] -0.34

Item C[C@]12CCC3=C4CCC(=O)C=C4CC[C@H]3[C@@H]1CC[C@@]2(O)CC#N [Dienogest] : provide z-score of subpopulation abundance -0.52

// Input: Cc1c(-c2ccc(O)cc2)n(Cc2ccc(OCCN3CCCCCC3)cc2)c2ccc(O)cc12 [Bazedoxifene Acetate] . Output its z-score of subpopulation abundance only. 0.06

====

# Tested on: Saccharomyces cerevisiae BY4741 SeMeCo community
# assay: z-score of subpopulation abundance vs DMSO median, subpopulation auxotrophic for HUM; higher = larger share of this subpopulation than in DMSO controls
# condition-label: 10 µM; 24 h; SM minimal medium; subpopulation (auxotrophy): HUM
Counter-ions that a name gives are not always drawn.
measurement-type: z-score of subpopulation abundance
Number only, please.

CN(C)[C@@H](CCOc1cccc2ccccc12)c1ccccc1 [Dapoxetine HCl]: -0.28
COc1ccc2cc([C@H](C)C(=O)O)ccc2c1 [Naproxen]: -1.97
COc1ccc(-c2nc3cc(C4=NNC(=O)CC4C)ccc3[nH]2)cc1 (centres undefined) [Pimobendan]: 0.52

Could you now consider this next compound?
Input C(=C\c1ccccc1)/CN1CCN(C(c2ccccc2)c2ccccc2)CC1 [Cinnarizine] , output reported z-score of subpopulation abundance. 1.64

====

# Test system: Saccharomyces cerevisiae BY4741 SeMeCo community
# assay: z-score of prototroph abundance vs DMSO median; higher = larger share of this subpopulation than in DMSO controls
# condition-label: 10 µM; 24 h; SM minimal medium; subpopulation (auxotrophy): Prototroph
Counter-ions that a name gives are not always drawn.
1 (yes) means recorded z-score of prototroph abundance is 0.07 or above; 0 (no) means it is below 0.07.

Study these solved cases before continuing.
CNCC[C@H](Oc1cccc2ccccc12)c1cccs1 [Duloxetine]: 1 (yes)
Cn1c(=O)c2c(ncn2CC2OCCO2)n(C)c1=O: 1 (yes)
CCC(C)n1ncn(-c2ccc(N3CCN(c4ccc(OCC5COC(Cn6cncn6)(c6ccc(Cl)cc6Cl)O5)cc4)CC3)cc2)c1=O (stereo not given): 0 (no)
C#C[C@]1(O)CC[C@H]2[C@@H]3CCC4=CC(=O)CC[C@@H]4[C@H]3C(=C)C[C@@]21CC: 1 (yes)
O=c1[nH]c(=O)n([C@H]2C[C@H](O)[C@@H](CO)O2)cc1/C=C/Br: 1 (yes)
Cc1cc(O)c(C(=O)N[C@@H](C(=O)N[C@@H]2C(=O)N3C(C(=O)O)=C(CSc4nnnn4C)CS[C@H]23)c2ccc(O)cc2)cn1 [Cefpiramide sodium]: 0 (no)

API: the following record is the query input.
Check this compound for z-score of prototroph abundance at or above 0.07: CCc1c2c(nc3ccc(OC(=O)N4CCC(N5CCCCC5)CC4)cc13)-c1cc3c(c(=O)n1C2)COC(=O)[C@]3(O)CC [Irinotecan HCl Trihydrate] 0 (no)

====

Attribute: z-score of subpopulation abundance
# Test system: Saccharomyces cerevisiae BY4741 SeMeCo community
# assay: z-score of subpopulation abundance vs DMSO median, subpopulation auxotrophic for LM; higher = larger share of this subpopulation than in DMSO controls
# condition-label: 10 µM; 24 h; SM minimal medium; subpopulation (auxotrophy): LM
Structures can show the parent of a compound that is named as a salt.
Answer with the value's number alone.

Take a look at these entries with their results.
C[C@@H](NCCCc1cccc(C(F)(F)F)c1)c1cccc2ccccc12 [Cinacalcet HCl]: 3.33
COc1cccc(CCc2ccccc2OCC(CN(C)C)OC(=O)CCC(=O)O)c1 (stereo unspecified) [Sarpogrelate hydrochloride]: -0.29
C=CCN1CCCC1CNC(=O)c1cc2nn[nH]c2cc1OC (stereo unspecified) [Alizapride HCl]: -0.39
CC(=O)NS(=O)(=O)c1ccc(N)cc1 [Sulfacetamide Sodium]: -0.08
CNCc1cc(-c2ccccc2F)n(S(=O)(=O)c2cccnc2)c1 [Vonoprazan Fumarate (TAK-438)]: -0.98

Fill in z-score of subpopulation abundance for record CN1CCN(c2cc3c(cc2F)c(=O)c(C(=O)O)cn3-c2ccc(F)cc2)CC1 [Difloxacin hydrochloride] -0.31

Supply reported z-score of subpopulation abundance belonging to this compound: C=CC[C@@H]1/C=C(\C)C[C@H](C)C[C@H](OC)[C@H]2O[C@@](O)(C(=O)C(=O)N3CCCC[C@H]3C(=O)O[C@H](/C(C)=C/[C@@H]3CC[C@@H](O)[C@H](OC)C3)[C@H](C)[C@@H](O)CC1=O)[C@H](C)C[C@@H]2OC 0.93

Identify the reported z-score of subpopulation abundance for the following entry. CC(NCCC(c1ccccc1)c1ccccc1)c1ccccc1 (stereo unspecified) [Fendiline hydrochloride] -0.45

Assign z-score of subpopulation abundance to the following record: CC1=C(C(=O)O)N2C(=O)[C@@H](NC(=O)[C@H](N)C3=CCC=CC3)[C@H]2SC1 [Cefradine] -0.58

Provide one value: measured z-score of subpopulation abundance of O=C1c2cccc3c2[C@H](CCC3)CN1[C@@H]1CN2CCC1CC2 [Palonosetron HCl] -0.39

Specify measured z-score of subpopulation abundance for CC(C)(O/N=C(\C(=O)N[C@@H]1C(=O)N2C(C(=O)[O-])=C(C[n+]3ccccc3)CS[C@H]12)c1csc(N)n1)C(=O)O . -0.09

Input COC(=O)C1=C(C)NC(C)=C(C(=O)OC(C)C)C1c1cccc2nonc12 (stereo unspecified) , output reported z-score of subpopulation abundance. -1.09

Return reported z-score of subpopulation abundance. Input compound: CCOc1cc(N)c(Cl)cc1C(=O)NCC1CN(Cc2ccc(F)cc2)CCO1 (stereo unspecified) [Mosapride] -0.41

Read off the recorded z-score of subpopulation abundance for NCCc1ccc(O)c(O)c1 [Dopamine HCl] -0.73

Consider the compound CCOC(=O)C1=C(COCCN)NC(C)=C(C(=O)OC)C1c1ccccc1Cl (stereo unspecified) [Amlodipine Besylate] . State its measured z-score of subpopulation abundance. 6.36

Fill in z-score of subpopulation abundance for record CCc1cc(C(N)=S)ccn1 [Ethionamide] 0.32
